Assay: in vivo
Settings: male, mouse, iv, 2 mg/kg
Reported Metric: clearance (mL/min/kg)
Please state the figure in mL/min/kg; there is no need to write the unit.

Which clearance reading was recorded for the molecule "Cc1nnc(-c2noc3c(F)c4c(cc23)CC2(C(=O)NC(=O)NC2=O)[C@H]2[C@H](C)O[C@H](C)CN42)o1" ? 14.3

* * *

System: M. tuberculosis H37Rv
Assay: MIC against M. tuberculosis H37Rv in 7H9 medium with various supplements
Assay type: cell-based, Mycobacterium tuberculosis
Conditions: Mycobacterium tuberculosis, H37RV; read-out: MIC, GLU/CAS/TX
# MIC values compiled below
Please state the figure in µM; there is no need to write the unit.

>>> print(df.to_string())
                                   compound  reported_metric  number
0  C[C@@H]1CN2c3c(cc4c(-n5cncn5)noc4c3Cl)CC3(C(=O)NC(=O)NC3=O)[C@H]2[C@H](C)O1 [Compound 18]              MIC    0.78
1  CC1CN2c3c(cc4c(N5C(=O)OC(C)C5C)noc4c3F)CC3(C(=O)NC(=O)NC3=O)C2C(C)O1 (stereo not shown) [Compound 7]              MIC      12
2  CC1CN2c3c(cc4c(N5C(=O)OCC5c5ncnn5C)noc4c3F)CC3(C(=O)NC(=O)NC3=O)C2C(C)O1 (stereo not shown) [Compound 9]              MIC      37

Moving on to the next compound.
Which MIC reading was recorded for the compound CC1CN2c3c(cc4c(N5C(=O)OCC5CCCO)noc4c3Cl)CC3(C(=O)NC(=O)NC3=O)C2C(C)O1 (stereo not shown) [Compound 4] ? 9.4

* * *

Test: in vivo
Settings: male, mouse, po, 300 mg/kg
Reported Metric: AUC(0-inf) (µg·h/mL)
Please state the figure in µg·h/mL; there is no need to write the unit.

Which AUC(0-inf) reading was recorded for the compound "Cc1nnc(-c2noc3c(F)c4c(cc23)CC2(C(=O)NC(=O)NC2=O)[C@H]2[C@H](C)O[C@H](C)CN42)o1" ? 1270

* * *

Test system: M. tuberculosis H37Rv
Experiment: MIC against M. tuberculosis H37Rv in 7H9 medium with various supplements
Format: cell-based, Mycobacterium tuberculosis
Details: Mycobacterium tuberculosis, H37RV; read-out: MIC, GLU/CAS/TX
Reported Metric: log10(MIC) (log10 of the value in µM)
Hey, these are logged values: log10 of MIC, µM being the unit before logging.

Molecule	Tested On	Reported Metric	Number
CC1CN2c3c(cc4c(N5C(=O)OC6COCCC65)noc4c3F)CC3(C(=O)NC(=O)NC3=O)C2C(C)O1 (centres unmarked)	M. tuberculosis H37Rv	log10(MIC)	0.79
C[C@@H]1CN2c3c(cc4c(C5=N[C@H](C)[C@@H](C)N5)noc4c3F)CC3(C(=O)NC(=O)NC3=O)[C@H]2[C@H](C)O1	M. tuberculosis H37Rv	log10(MIC)	0.49
C[C@@H]1CN2c3c(cc4c(N5C(=O)OC[C@@H]5C)noc4c3F)CC3(C(=O)NC(=O)NC3=O)[C@H]2[C@H](C)O1 [Zoliflodacin, zoliflodacin, reference compound]	M. tuberculosis H37Rv	log10(MIC)	1.28
CC1CN2c3c(cc4c(N5C(=O)OC6COCC65)noc4c3F)CC3(C(=O)NC(=O)NC3=O)C2C(C)O1 (centres unmarked)	M. tuberculosis H37Rv	log10(MIC)	0.20

Moving on to the next molecule.
Which log10(MIC) reading was recorded for the molecule CC1CN2c3c(cc4c(N5C(=O)OCC5CCO)noc4c3F)CC3(C(=O)NC(=O)NC3=O)C2C(C)O1 (centres unmarked) ? 0.67
